tested on: HOP-62; experiment: NCI tumour cell line growth inhibition, 48 h
Activity calls are given as the source filed them. No stated cut-off is given here; in the data, active = GI50 up to about 1.1 µM and inactive = higher.
Hi there, use one of these labels in your reply, thanks! active, inactive

See these solved cases before continuing.
molecule	answer_label
Nc1c2c(nc3cc(F)c(F)cc13)CCC2	inactive
CS(=O)(=O)OCCCNCCCOS(C)(=O)=O	inactive
CCC(=O)OCN(C)c1nc(N(C)COC(=O)CC)nc(N(C)COC(=O)CC)n1	inactive
C/C=C/C[C@@H](C)C(=O)C1C(=O)N[C@@H](C(C)C)C(=O)N(C)CC(=O)N(C)[C@@H](CC(C)C)C(=O)N[C@@H](C(C)C)C(=O)N(C)[C@@H](CC(C)C)C(=O)N[C@@H](C)C(=O)N[C@@H](C)C(=O)N(C)[C@@H](CC(C)C)C(=O)N(C)[C@@H](CC(C)C)C(=O)N(C)[C@@H](C(C)C)C(=O)N1C (stereo partly drawn)	inactive

Would you mind telling me which call this test gave C/C(=N/NC(=S)Nc1ccc([N+](=O)[O-])cc1)c1cccc(/C(C)=N\NC(=S)Nc2ccc([N+](=O)[O-])cc2)n1 ? active

Would you mind telling me which call this test gave O=C1c2ccccc2C(O)(C(=O)O)C1(O)CC=C(Cl)Cl (stereo not drawn) ? inactive

Would you mind telling me which call this test gave Cc1ccccc1NC(=O)c1nc(S)nc(N)c1-c1ccccc1C ? inactive

Would you mind telling me which call this test gave COc1ccc(N(c2ccc(C#N)cc2)c2ccc(C#N)cc2)cc1 ? inactive

* * *

tested on: SNB-19; test: NCI tumour cell line growth inhibition, 48 h
Active and inactive are the calls of the source. Cut-off read from the data, not from the text of the source: active = GI50 up to about 1.1 µM and inactive = higher. Starred links: 1 amine or outer side, 2 acyl side, 3 side chain; linkers in the order of their positions; H or OH if unused. Non-standard residues stand in square brackets, D forms with d. Residues, ends and D or L forms follow the SMILES beside them. *: point of attachment. X47 = CCC(=O)CC1CC(C)CC(C(=O)[*:2])N1[*:1]; X46 = CCCCCCCCC(C)C(=O)*; Aib = CC(C)(N)C(=O)O; X48 = CC(CN(C)CCO)N*
Hi there, use one of these labels in your reply, thanks! active, inactive

compound	test_target	answer_label
O=C1CN=C(C[N+](=O)[O-])c2ccccc21	SNB-19	inactive

Would you mind telling me which call this test gave O=C(Cc1nc2ccccc2s1)C(=O)Nc1cccc(C(F)(F)F)c1 ? inactive

Would you mind telling me which call this test gave CCCCCCCCC(C)C(=O)N1CCCC1C(=O)N1C(CC(=O)CC)CC(C)CC1C(=O)NC(C)C(=O)NC(C)(C)C(=O)NC(C)(C)C(=O)NC(C(=O)NC(C)C(=O)NC(C)(C)C(=O)NC(C)(C)C(=O)NC(C)CN(C)CCO)C(C)CC (stereo unspecified) (X46-P[X47]A[Aib][Aib]IA[Aib][Aib]-X48; configuration not given here) ? active

Would you mind telling me which call this test gave CCCNC(=O)NNC(=O)c1c[nH]c2nc(C)ccc2c1=O ? inactive

Would you mind telling me which call this test gave O=C(CCOS(=O)(=O)CF)N1CCN(C(=O)CCOS(=O)(=O)CF)CC1 ? inactive

Would you mind telling me which call this test gave COc1cccc2c1C(=O)c1c(O)c3c(c(O)c1C2=O)CC(O)(C(C)=O)CC3OC1CC([N+](C)(C)C)C(O)C(C)O1 (stereo unspecified) ? inactive

Would you mind telling me which call this test gave O=C(O)C(Cc1cccs1)NC(=O)C(F)(F)F (stereo unspecified) ? inactive

Would you mind telling me which call this test gave C/C=C(/C)C(=O)OC1CC(C)[C@H]2CC(=O)C(C)=C2CC1C(C)(C)OC(C)=O (stereo partly specified) ? inactive

Would you mind telling me which call this test gave N#CC[C@@H](O)COc1ccccc1 ? inactive

Would you mind telling me which call this test gave COCCOCN(C(=O)C1=CCC2(CC1)OCCO2)c1ccccc1I ? inactive

Would you mind telling me which call this test gave CN1c2ccccc2SC2C(c3ccccc3)=NOC21 (stereo unspecified) ? inactive
